Measured kd Cyno, listed per entry for reference.
Study System: Cyno BCMA
Run Description: Kinetics and affinity of cyno BCMA/human IgG interactions by SPR (Bio-Rad Proteon XPR36)
Format: binding, cynomolgus
Assay Conditions: 37° C.
Measured Endpoint: kd Cyno (s⁻¹)

- C01_Rd4_6 nM_C20: anti-BCMA antibody (antibody, V domains shown) VH: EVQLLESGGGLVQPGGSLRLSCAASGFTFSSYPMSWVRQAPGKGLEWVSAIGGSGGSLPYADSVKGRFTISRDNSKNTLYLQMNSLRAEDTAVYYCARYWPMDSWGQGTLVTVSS VL: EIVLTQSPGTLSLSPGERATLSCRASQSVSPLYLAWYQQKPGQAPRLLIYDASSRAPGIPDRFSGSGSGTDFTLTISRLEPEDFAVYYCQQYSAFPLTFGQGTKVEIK: 0.00625
- COMBO_Rd4_0.6 nM_C20: anti-BCMA antibody (antibody, V domains shown) VH: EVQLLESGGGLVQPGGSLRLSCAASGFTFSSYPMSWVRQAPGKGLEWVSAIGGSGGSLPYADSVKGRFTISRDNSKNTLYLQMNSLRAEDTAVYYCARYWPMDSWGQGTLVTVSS VL: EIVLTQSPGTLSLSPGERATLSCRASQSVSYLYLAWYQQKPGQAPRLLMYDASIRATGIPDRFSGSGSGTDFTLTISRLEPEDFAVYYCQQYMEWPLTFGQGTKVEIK: 0.000284
